System: MCF7
Assay: Inhibitory concentration required for antagonistic activity in MCF-7 cell lines derived from breast tumors that predominantly express ER-alpha
Type: functional, cell-based
Conditions: Homo sapiens
readout-type: pIC50
Answers are plain numbers, as −log10 of the molar value.

Some compounds with known pIC50 results, for comparison:
compound	pIC50
O=C(N1CCc2cc(O)ccc2C1c1ccc(OCCN2CCCC2)cc1)C(F)(F)F (stereo not drawn)	7.06
Cc1ccc(S(=O)(=O)N2CCc3cc(O)ccc3C2c2ccc(OCCN3CCCC3)cc2)cc1 (stereo not drawn)	7.53

With those in mind, consider the next compound.
Give pIC50 for O=S(=O)(c1cccc2ccccc12)N1CCc2cc(O)ccc2C1c1ccc(OCCN2CCCC2)cc1 (stereo not drawn)
7.29

###

Biological target: UniProt Q92731
Assay: In vitro concentration required to inhibit [3H]estradiol binding to human estrogen receptor beta expressed in 293T cells
Assay type: cell-based
readout-type: IC50

molecule	experimental-target	IC50
Oc1ccc2c(c1)CCN(c1ccccc1)C2CC1CCCCC1 (centres undefined)	UniProt Q92731	295 nM
CCCc1ccc(S(=O)(=O)N2CCc3cc(O)ccc3C2c2ccc(OCCN3CCCC3)cc2)cc1 (centres undefined)	UniProt Q92731	133 nM
Oc1ccc2c(c1)CCN(c1ccccc1)C2c1ccccc1 (centres undefined)	UniProt Q92731	48.8 nM
O=C(N1CCc2cc(O)ccc2C1c1ccc(OCCN2CCCC2)cc1)C(F)(F)F (centres undefined)	UniProt Q92731	93.3 nM
O=C(N1CCc2cc(O)ccc2[C@@H]1c1ccc(O)cc1)C(F)(F)F	UniProt Q92731	> 3200 nM
O=S(=O)(c1cccc2ccccc12)N1Cc2cc(O)ccc2C(c2ccc(O)cc2)C1 (centres undefined)	UniProt Q92731	10.7 nM
CC(C)C1c2ccc(O)cc2CCN1c1ccccc1 (centres undefined)	UniProt Q92731	180 nM
Oc1ccc(C2CN(Cc3ccccc3)Cc3cc(O)ccc32)cc1 (centres undefined)	UniProt Q92731	13.1 nM
O=C(N1CCc2cc(O)ccc2C1c1ccc(Br)cc1)C(F)(F)F (centres undefined)	UniProt Q92731	22 nM
Oc1ccc2c(c1)CCN(c1ccccc1)C2c1cccs1 (centres undefined)	UniProt Q92731	26.3 nM

Count: 6. Required value per item: IC50.
1. O=C(N1CCc2cc(O)ccc2C1c1ccccc1)C(F)(F)F (centres undefined)
2. O=C(N1CCc2cc(O)ccc2[C@H]1c1ccc(O)cc1)C(F)(F)F
3. O=C(N1CCc2cc(O)ccc2C1c1cccs1)C(F)(F)F (centres undefined)
4. Oc1ccc2c(c1)CCN(Cc1ccc3c(c1)OCO3)C2c1ccc(OCCN2CCCC2)cc1 (centres undefined)
5. O=S(=O)(c1ccccc1)N1CCc2cc(O)ccc2C1c1ccc(OCCN2CCCC2)cc1 (centres undefined)
6. O=S(=O)(c1ccc2ccccc2c1)N1CCc2cc(O)ccc2C1c1ccc(OCCN2CCCC2)cc1 (centres undefined)

1. 27.4 nM
2. 8.9 nM
3. 63.5 nM
4. 220 nM
5. 18.5 nM
6. 1080 nM

###

Biological target: Estrogen receptor (Homo sapiens)
Test: In vitro concentration required to inhibit [3H]estradiol binding to human estrogen receptor alpha expressed in 293T cells
readout-type: pIC50
Numbers only, as −log10 of the molar value.

Here's what some known entries look like.
compound	pIC50
O=C(/C=C/c1ccc(N2CCc3cc(O)ccc3C2c2ccccc2)cc1)N1CCOCC1 (configuration not stated)	8.23
O=C(c1ccccc1)N1Cc2cc(O)ccc2C(c2ccc(O)cc2)C1 (configuration not stated)	6.80
Oc1ccc2c(c1)CCN(c1ccccc1)C2Cc1ccccc1 (configuration not stated)	8.17
Oc1ccc2c(c1)CCN(c1ccccc1)C2CC1CCCCC1 (configuration not stated)	7.27
Oc1ccc2c(c1)CCN(c1ccccc1)C2C1CCCCC1 (configuration not stated)	7.53

Below is a list of compounds. For each, state its recorded pIC50.
1. O=S(=O)(c1ccccc1)N1CCc2cc(O)ccc2C1c1ccc(OCCN2CCCC2)cc1 (configuration not stated)
2. CN(C)C(=O)/C=C/c1ccc(N2CCc3cc(O)ccc3C2c2ccccc2)cc1 (configuration not stated)
3. O=C(N1CCc2cc(O)ccc2C1c1ccc(OCCN2CCCC2)cc1)C(F)(F)F (configuration not stated)
4. O=C(N1CCc2cc(O)ccc2C1c1cccs1)C(F)(F)F (configuration not stated)

[8.28, 8.10, 7.54, 6.41]

###

Biological target: Estrogen receptor (Homo sapiens, UniProt P03372)
Sequence (P03372 whole entry): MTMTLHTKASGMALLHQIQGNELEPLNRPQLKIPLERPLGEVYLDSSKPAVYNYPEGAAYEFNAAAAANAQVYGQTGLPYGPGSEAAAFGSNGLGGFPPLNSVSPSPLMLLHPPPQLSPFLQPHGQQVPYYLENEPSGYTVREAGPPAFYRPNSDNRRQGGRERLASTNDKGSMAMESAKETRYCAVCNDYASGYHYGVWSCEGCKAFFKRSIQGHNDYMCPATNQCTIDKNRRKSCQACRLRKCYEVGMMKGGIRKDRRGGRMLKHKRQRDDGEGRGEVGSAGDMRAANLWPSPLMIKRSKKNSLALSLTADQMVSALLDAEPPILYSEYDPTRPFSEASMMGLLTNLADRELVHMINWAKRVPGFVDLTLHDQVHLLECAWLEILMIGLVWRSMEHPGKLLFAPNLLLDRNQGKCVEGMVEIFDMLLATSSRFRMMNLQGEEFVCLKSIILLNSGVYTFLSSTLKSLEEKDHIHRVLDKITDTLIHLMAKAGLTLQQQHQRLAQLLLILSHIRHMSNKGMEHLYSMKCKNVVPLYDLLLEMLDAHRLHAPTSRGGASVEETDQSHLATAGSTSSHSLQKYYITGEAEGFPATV
Test: In vitro concentration required to inhibit [3H]estradiol binding to human estrogen receptor alpha expressed in 293T cells
readout-type: pIC50
One number for each entry, as −log10 of the molar value.

Examples from the recorded data:
compound	readout-number
O=S(=O)(c1ccc2ccccc2c1)N1CCc2cc(O)ccc2C1c1ccc(OCCN2CCCC2)cc1 (configuration not stated)	6.95
O=C(N1CCc2cc(O)ccc2C1c1ccccc1)C(F)(F)F (configuration not stated)	6.63
Oc1ccc2c(c1)CCN(c1ccccc1)C2c1ccc(OCCN2CCCC2)cc1 (configuration not stated)	7.94
Oc1ccc2c(c1)CCN(Cc1ccc3c(c1)OCO3)C2c1ccc(OCCN2CCCC2)cc1 (configuration not stated)	8.04

For each of the items listed, what is its pIC50?
1. O=S(=O)(c1cccc2ccccc12)N1CCc2cc(O)ccc2C1c1ccc(OCCN2CCCC2)cc1 (configuration not stated)
2. CCOC(=O)N1CCc2cc(O)ccc2C1c1ccc(OCCN2CCCC2)cc1 (configuration not stated)
3. O=C(c1ccccc1)N1CCc2cc(O)ccc2C1c1ccc(OCCN2CCCC2)cc1 (configuration not stated)

1. 8.25
2. 7.35
3. 6.25

###

Target: Estrogen receptor beta (Homo sapiens, UniProt Q92731)
Sequence (Q92731 whole entry): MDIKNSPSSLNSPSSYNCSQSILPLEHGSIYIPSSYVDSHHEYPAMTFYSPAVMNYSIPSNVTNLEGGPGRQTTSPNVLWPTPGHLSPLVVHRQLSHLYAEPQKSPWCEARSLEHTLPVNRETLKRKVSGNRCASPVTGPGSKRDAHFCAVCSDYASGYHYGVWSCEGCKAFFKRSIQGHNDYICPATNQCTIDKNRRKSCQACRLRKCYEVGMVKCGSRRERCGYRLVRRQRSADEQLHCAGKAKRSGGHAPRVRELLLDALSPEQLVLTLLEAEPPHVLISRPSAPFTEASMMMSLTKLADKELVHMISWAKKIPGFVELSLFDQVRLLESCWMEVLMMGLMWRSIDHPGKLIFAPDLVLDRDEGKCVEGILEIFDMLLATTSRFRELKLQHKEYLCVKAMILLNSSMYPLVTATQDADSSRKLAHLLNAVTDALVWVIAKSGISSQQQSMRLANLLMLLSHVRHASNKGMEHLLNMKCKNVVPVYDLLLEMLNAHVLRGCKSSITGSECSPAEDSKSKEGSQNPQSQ
Assay: In vitro concentration required to inhibit [3H]estradiol binding to human estrogen receptor beta expressed in 293T cells
readout-type: IC50 (nM)
Numbers only, in nM.

compound	IC50 / nM
Cc1ccc(S(=O)(=O)N2CCc3cc(O)ccc3C2c2ccc(OCCN3CCCC3)cc2)cc1 (stereo not drawn)	71.2
CN(C)C(=O)/C=C/c1ccc(N2CCc3cc(O)ccc3C2c2ccccc2)cc1 (stereo not drawn)	8.7
Oc1ccc2c(c1)CCN(Cc1ccccc1)C2c1ccc(OCCN2CCCC2)cc1 (stereo not drawn)	42.2
CCOC(=O)N1CCc2cc(O)ccc2C1c1ccc(OCCN2CCCC2)cc1 (stereo not drawn)	293
O=C(/C=C/c1ccc(N2CCc3cc(O)ccc3C2c2ccccc2)cc1)N1CCOCC1 (stereo not drawn)	4.8

Each compound below has a reported value. Please supply its IC50.
1. O=S(=O)(c1cccc2ccccc12)N1CCc2cc(O)ccc2C1c1ccc(OCCN2CCCC2)cc1 (stereo not drawn)
2. O=S(=O)(c1ccccc1)N1Cc2cc(O)ccc2C(c2ccc(O)cc2)C1 (stereo not drawn)
3. Oc1ccc2c(c1)CCN(c1ccccc1)C2c1ccc(OCCN2CCCC2)cc1 (stereo not drawn)
4. O=C(c1ccccc1)N1CCc2cc(O)ccc2C1c1ccc(OCCN2CCCC2)cc1 (stereo not drawn)
5. Oc1ccc2c(c1)CCN(c1ccccc1)C2C1CCCCC1 (stereo not drawn)

1: 21.3; 2: 41.7; 3: 22.2; 4: 2250; 5: 99

Hey, quick one: what's IC50 for each of these?
1. O=C(N1Cc2cc(O)ccc2C(c2ccc(O)cc2)C1)C(F)(F)F (stereo not drawn)
2. Oc1ccc2c(c1)CCN(c1ccccc1)C2Cc1ccccc1 (stereo not drawn)
3. O=C(c1ccccc1)N1Cc2cc(O)ccc2C(c2ccc(O)cc2)C1 (stereo not drawn)

11.4
66.4
27.9

###

Target: Estrogen receptor (Homo sapiens)
Experiment: In vitro concentration required to inhibit [3H]estradiol binding to human estrogen receptor alpha expressed in 293T cells
Kindly state IC50 for each of the entries shown.
Answers are plain numbers, in nM.

compound	output-unit	IC50
O=C(N1Cc2cc(O)ccc2C(c2ccc(O)cc2)C1)C(F)(F)F (stereo not drawn)	nM	123

For every record below, what is its IC50?
1. CC(C)C1c2ccc(O)cc2CCN1c1ccccc1 (stereo not drawn)
2. Cc1ccc(S(=O)(=O)N2CCc3cc(O)ccc3C2c2ccc(OCCN3CCCC3)cc2)cc1 (stereo not drawn)
3. O=S(=O)(c1cccc2ccccc12)N1Cc2cc(O)ccc2C(c2ccc(O)cc2)C1 (stereo not drawn)

1: 42.7; 2: 24.8; 3: 28

###

So I've got a bunch of molecules here, and I need their IC50 values.
Target: Estrogen receptor (Homo sapiens, UniProt P03372)
Experiment: In vitro concentration required to inhibit [3H]estradiol binding to human estrogen receptor alpha expressed in 293T cells
Numbers only, in nM.

molecule	experimental-target	readout-number
O=C(N1CCc2cc(O)ccc2C1c1ccc(Br)cc1)C(F)(F)F (centres undefined)	Estrogen receptor (Homo sapiens, UniProt P03372)	165

Hi, could you look up IC50 for each item in my list?
1. Oc1ccc2c(c1)CCN(c1ccccc1)C2c1cccs1 (centres undefined)
2. Oc1ccc2c(c1)CCN(Cc1ccccc1)C2c1ccc(OCCN2CCCC2)cc1 (centres undefined)
3. CCCc1ccc(S(=O)(=O)N2CCc3cc(O)ccc3C2c2ccc(OCCN3CCCC3)cc2)cc1 (centres undefined)
4. O=S(=O)(c1ccccc1)N1Cc2cc(O)ccc2C(c2ccc(O)cc2)C1 (centres undefined)
5. Oc1ccc(C2CN(Cc3ccccc3)Cc3cc(O)ccc32)cc1 (centres undefined)

50
4.7
29.4
120
20.1

For each listed entry, give its IC50.
1. Oc1ccc2c(c1)CCN(c1ccccc1)C2c1ccccc1 (centres undefined)
2. O=C(N1CCc2cc(O)ccc2[C@H]1c1ccc(O)cc1)C(F)(F)F

30.7
53.6
